Origin of measurements: patent US9890175B2

Tested on: HT-29 colon cancer
Protocol text: MTT proliferation inhibition, HT-29
Assay type: cell-based
Cond: Homo sapiens, HT-29, read-out: Proliferation inhibition rate, HT29 Colon cancer
Listing: inhibition at 1 µM of selected compounds
Give the quantity in %, number only.

Example entries begin here.
CO[C@H]1C(=O)[C@]2(C)[C@@H](OC(=O)N(C)C)C[C@H]3OC[C@@]3(OC(C)=O)[C@H]2[C@H](OC(=O)c2ccccc2)[C@]23OC(=O)O[C@H]2[C@H](OC(=O)[C@H](O)[C@H](CC(C)C)NC(=O)OC(C)(C)C)C(C)=C1C3(C)C: 89.2
CO[C@H]1C(=O)[C@]2(C)[C@@H](OC)C[C@H]3OC[C@@]3(OC(C)=O)[C@H]2[C@H](OC(=O)c2ccccc2)[C@]23OC(=O)O[C@H]2[C@H](OC(=O)[C@H](O)[C@@H](NC(=O)OC(C)(C)C)c2ccccc2)C(C)=C1C3(C)C: 89.4

Fill in the blank: the reported inhibition at 1 µM of CO[C@H]1C(=O)[C@]2(C)CC[C@H]3OC[C@@]3(OC(C)=O)[C@H]2[C@H](OC(=O)c2ccccc2)[C@]23OC(=O)O[C@H]2[C@H](OC(=O)[C@H](O)[C@@H](NC(=O)OC(C)(C)C)c2ccccc2)C(C)=C1C3(C)C is ____. 86.6

Endpoint output: inhibition at 1 µM of COC(=O)O[C@H]1C[C@H]2OC[C@@]2(OC(C)=O)[C@H]2[C@H](OC(=O)c3ccccc3)[C@]34OC(=O)O[C@H]3[C@H](OC(=O)[C@H](O)[C@@H](NC(=O)OC(C)(C)C)c3ccccn3)C(C)=C([C@@H](OC)C(=O)[C@]12C)C4(C)C . Value? 85.2
